Please provide measured growth for the entries that follow.
Test system: MALME-3M melanoma
Test: NCI-60 one-dose screen, 48 h (100 = growth as untreated, 0 = no growth, -100 = all killed)
Settings: 10 µM unless noted
The panel holds about 83,000 compounds, 20% with a hit somewhere; the sample as a whole holds those more often.
Use % as the unit, but write only the number.

Tell me its growth on MALME-3M melanoma: COc1cc2c(Nc3ccc(Br)cc3F)ncnc2cc1OCC1CCN(C)CC1
-52.3

Answer briefly: growth recorded on MALME-3M melanoma for NC1(C(=O)N[C@@H](CCO)c2ccc(Cl)cc2)CCN(c2ncnc3[nH]ccc23)CC1
9.74

Please report the measured growth for CCCCN1C(=O)c2cccc3c(-c4ccc5c(c4)ncn5C4CCCCC4)ccc(c23)C1=O tested on MALME-3M melanoma.
95.4

Provide growth, tested on MALME-3M melanoma, for CC(=Nc1ccccc1)C1=C(O)C(Cc2ccc(O)cc2)NC1=O (stereo unspecified) .
58.6

Check MALME-3M melanoma data and give growth for NN1C(=O)CSC1=S .
109

Lab note: MALME-3M melanoma assay, enter growth for O=C1NC(=O)[C@@H](c2cn3c4c(cccc24)CCC3)[C@@H]1c1c[nH]c2ccccc12 here
59.7

----------
Can you tell me growth for the items I'm about to list?
Test system: 786-0 renal
Assay: NCI-60 one-dose screen, 48 h (100 = growth as untreated, 0 = no growth, -100 = all killed)
Settings: 10 µM unless noted
The panel holds about 83,000 compounds, 20% with a hit somewhere; the sample as a whole holds those more often.
The reply should be a number in %, with the unit left off.

Indicate its recorded growth; the compound in question is O=C(NO)c1ccc(Cn2c(=O)n(-c3ccccc3F)c(=O)c3ccccc32)cc1
33.3

Please list growth recorded for the compound COc1cc(C(=O)NNC(=O)c2ccc(NC(=O)CCl)cc2)cc(OC)c1OC
95.3

Identify the reported growth for the following entry. COc1cc(Nc2c(C#N)cnc3cc(OCCCN4CCN(C)CC4)c(OC)cc23)c(Cl)cc1Cl
67.7

Annotate the compound Cc1ccccc1N1C(c2ccccc2)=NNC12C=CC(=O)C=C2Cl (centres undefined) with its measured growth.
106

Give growth for CC(C)NC[C@@H](C(=O)N1CCN(c2ncnc3c2[C@H](C)C[C@H]3O)CC1)c1ccc(Cl)cc1
4.37

Please report growth for the following compound: CN(C)C/C=C/C(=O)Nc1cc2c(Nc3ccc(F)c(Cl)c3)ncnc2cc1O[C@H]1CCOC1
8.66

Consider the compound CC(=O)C(C(C)=O)C(c1ccccc1)C(C(C)=O)C(C)=O and give its recorded growth.
97.2

Supply growth value. Item: C[C@@H]1COC(Nc2ccc3ncnc(Nc4ccc(OCc5nccs5)c(Cl)c4)c3c2)=N1
50

Return the recorded growth value; entry: C=CCCCOC1[C@H](OCc2ccccc2)C(OCc2ccccc2)C(OC)O[C@@H]1CNC(=O)c1cccc(I)c1 (some centres undefined)
39.5

----------
System: BT-549 breast
Test: NCI-60 one-dose screen, 48 h
Settings: 10 µM unless noted
About 83,000 compounds went through this panel and 20% of them were active in at least one assay; those are over-represented in the sample as a whole. Activity calls are given as the source filed them. Rule for the calls: active = growth percent below 10; inactive = the rest.
API: response.call in label 1 (active), label 0 (inactive)

// outcome(item) with item = Cc1sc2c(c1C)c(=O)nc1c(-c3nc(-c4ccccc4)cs3)n[nH]n12
label 0

# outcome recorded in this test, key = Cc1cc(-c2cc(O)ccc2Cl)cc2nnc(Nc3ccc(OCCN4CCCC4)cc3)nc12
label 1

In this assay, the call recorded for CC(C)(C)c1cnc(CSc2cnc(NC(=O)C3CCNCC3)s2)o1 was what?
label 1

How did this test come out for Nc1c(Cl)cccc1[N+](=O)[O-] ?
label 0

Any idea what this test logged for CC(=Nc1ccccc1)C1=C(O)C(Cc2ccc(O)cc2)NC1=O (stereo not given) ?
label 0

Could you please tell me the result logged for C=CCC(=O)N[C@H](/C=C/C(=O)O)Cc1ccc(-c2cc(Cl)cc(Cl)c2)cc1 in this assay?
label 0

Write down the call the test reported for this compound. Item: C#Cc1cccc(Nc2ncnc3cc(OC)c(OCCCCCCC(=O)NO)cc23)c1
label 1

Give the logged outcome of this assay for the following compound: O=C(O)c1ccc2c(c1)nc(Nc1cccc(Cl)c1)c1ccncc12
label 1

Please state the recorded outcome for this compound: Cc1cc2c3c(cccc3c1)C(=O)c1ccccc1-2
label 0

Which outcome did this test record for the compound CC(=O)c1cnc2ccc(-c3cc(Cl)c(O)c(Cl)c3)nc2c1NC1CCC(CN(C)C)CC1 (stereo not given) ?
label 1
